spectrum intensity of the extracted mass range (compound in SEC spin column filtrate): recorded values
# target.desc: FLJ13397 clone-derived protein (CARP) (Homo sapiens, UniProt Q9H8M7)
# Construct: A human full-length cDNA clone was expressed as a protein with an N-terminal His tag; His tag (pDEST17 Gateway vector) (N); made in house; host or cells: Escherichia coli BL21star(DE3)pLysS
# Sequence (Q9H8M7 whole entry): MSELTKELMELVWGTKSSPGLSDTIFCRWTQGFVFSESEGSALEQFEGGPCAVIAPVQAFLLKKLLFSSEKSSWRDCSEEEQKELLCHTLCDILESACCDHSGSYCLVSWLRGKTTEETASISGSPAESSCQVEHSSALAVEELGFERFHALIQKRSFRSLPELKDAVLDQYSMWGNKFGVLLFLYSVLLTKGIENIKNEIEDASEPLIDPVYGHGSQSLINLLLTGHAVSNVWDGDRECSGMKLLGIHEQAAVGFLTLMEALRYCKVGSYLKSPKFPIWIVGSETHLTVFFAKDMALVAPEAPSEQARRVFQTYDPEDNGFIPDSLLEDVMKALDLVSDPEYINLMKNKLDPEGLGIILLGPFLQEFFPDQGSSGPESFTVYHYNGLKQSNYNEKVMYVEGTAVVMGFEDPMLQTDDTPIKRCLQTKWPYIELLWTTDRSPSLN
# test.summary: SEC/MS (size exclusion chromatography / mass analysis) interaction analysis between FLJ13397 clone-derived protein and compounds
# Assay type: binding
# settings: compound 1 μM; protein 0 μM (protein-free reference)
Where a name gives a salt, the structure may show the parent alone.
# answer = number (no unit)

The cases that follow already have their spectrum intensity of the extracted mass range (compound in SEC spin column filtrate) on record.
| compound | target.desc | recorded.result |
| --- | --- | --- |
| COC(=O)Nc1nc2ccc(C(=O)c3ccccc3)cc2[nH]1 | FLJ13397 clone-derived protein (CARP) (Homo sapiens, UniProt Q9H8M7) | 495347 |
| c1ccc2[nH]c(-c3cscn3)nc2c1 | FLJ13397 clone-derived protein (CARP) (Homo sapiens, UniProt Q9H8M7) | 61442947 |
| COc1ccc(CCN2CCC(Nc3nc4ccccc4n3Cc3ccc(F)cc3)CC2)cc1 | FLJ13397 clone-derived protein (CARP) (Homo sapiens, UniProt Q9H8M7) | 12239048 |
| CC[C@@H](C(=O)[C@@H](C)[C@@H](O)[C@H](C)CCc1ccc(C)c(O)c1C(=O)O)[C@H]1O[C@](CC)([C@H]2CC[C@](O)(CC)[C@H](C)O2)C[C@@H]1C [Lasalocid sodium salt] | FLJ13397 clone-derived protein (CARP) (Homo sapiens, UniProt Q9H8M7) | 9674294 |
| OCCOCCN1CCN(C(c2ccccc2)c2ccc(Cl)cc2)CC1 (centres unmarked) [Hydroxyzine] | FLJ13397 clone-derived protein (CARP) (Homo sapiens, UniProt Q9H8M7) | 112855827 |

// spectrum intensity of the extracted mass range (compound in SEC spin column filtrate) lookup, key: `COC(=O)Nc1nc2ccccc2[nH]1`
20852664

// spectrum intensity of the extracted mass range (compound in SEC spin column filtrate) lookup, key: `COC(=O)Nc1nc2ccc(C(=O)c3cccs3)cc2[nH]1`
8235638

// spectrum intensity of the extracted mass range (compound in SEC spin column filtrate) lookup, key: `CCCS(=O)(=O)c1ccc2nc(NC(=O)OC)[nH]c2c1`
1342766

---

# target.desc: FLJ13397 clone-derived protein (CARP) (Homo sapiens)
# Construct: A human full-length cDNA clone was expressed as a protein with an N-terminal His tag; His tag (pDEST17 Gateway vector) (N); made in house; host or cells: Escherichia coli BL21star(DE3)pLysS
# test.summary: SEC/MS (size exclusion chromatography / mass analysis) interaction analysis between FLJ13397 clone-derived protein and compounds
# Type: binding
# settings: compound 100 μM; protein 47.5 μM
Structures can show the parent of a compound that is named as a salt.
measurement.name: spectrum intensity of the extracted mass range (compound in SEC spin column filtrate)
# answer = number (no unit)

The cases that follow already have their spectrum intensity of the extracted mass range (compound in SEC spin column filtrate) on record.
| compound | recorded.result |
| --- | --- |
| OCCOCCN1CCN(C(c2ccccc2)c2ccc(Cl)cc2)CC1 (stereo not drawn) [Hydroxyzine] | 554713461 |
| COc1ccc(CCN2CCC(Nc3nc4ccccc4n3Cc3ccc(F)cc3)CC2)cc1 | 2237504347 |
| CC[C@@H](C(=O)[C@@H](C)[C@@H](O)[C@H](C)CCc1ccc(C)c(O)c1C(=O)O)[C@H]1O[C@](CC)([C@H]2CC[C@](O)(CC)[C@H](C)O2)C[C@@H]1C [Lasalocid sodium salt] | 3226817361 |
| CCCSc1ccc2nc(NC(=O)OC)[nH]c2c1 | 3946588 |

Param readout= spectrum intensity of the extracted mass range (compound in SEC spin column filtrate); system= FLJ13397 clone-derived protein (CARP) (Homo sapiens); entry= COC(=O)Nc1nc2ccc([S+]([O-])c3ccccc3)cc2[nH]1 (stereo not drawn) ; returns value.
180803127

Param readout= spectrum intensity of the extracted mass range (compound in SEC spin column filtrate); system= FLJ13397 clone-derived protein (CARP) (Homo sapiens); entry= CC(C)(C)c1ccc(C(O)CCCN2CCC(C(O)(c3ccccc3)c3ccccc3)CC2)cc1 (stereo not drawn) ; returns value.
549040113

Param readout= spectrum intensity of the extracted mass range (compound in SEC spin column filtrate); system= FLJ13397 clone-derived protein (CARP) (Homo sapiens); entry= `CCCOc1ccc2nc(NC(=O)OC)[nH]c2c1` ; returns value.
8921904

Param readout= spectrum intensity of the extracted mass range (compound in SEC spin column filtrate); system= FLJ13397 clone-derived protein (CARP) (Homo sapiens); entry= `Oc1ccc(CCN2CCC(Nc3nc4ccccc4n3Cc3ccc(F)cc3)CC2)cc1` ; returns value.
225675004

Param readout= spectrum intensity of the extracted mass range (compound in SEC spin column filtrate); system= FLJ13397 clone-derived protein (CARP) (Homo sapiens); entry= `OC(c1ccccc1)(c1ccccc1)C1CCNCC1` ; returns value.
287013305

Param readout= spectrum intensity of the extracted mass range (compound in SEC spin column filtrate); system= FLJ13397 clone-derived protein (CARP) (Homo sapiens); entry= `COC(=O)Nc1nc2ccc(C(=O)c3ccccc3)cc2[nH]1` ; returns value.
9517765

Param readout= spectrum intensity of the extracted mass range (compound in SEC spin column filtrate); system= FLJ13397 clone-derived protein (CARP) (Homo sapiens); entry= `COC(=O)Nc1nc2ccccc2[nH]1` ; returns value.
65044479

Param readout= spectrum intensity of the extracted mass range (compound in SEC spin column filtrate); system= FLJ13397 clone-derived protein (CARP) (Homo sapiens); entry= `c1ccc2[nH]cnc2c1` ; returns value.
4337586
